# SUBJECT OF TEST: D(4) dopamine receptor (Homo sapiens)
# TEST DETAILS: In vitro ability of compound to inhibit binding of [3H]spiperone to human Dopamine receptor D4
pKi: −log10 of the molar value.
Please map values of pKi to classes as shown: interval 1 (below 7), interval 2 (7 to below 8), interval 3 (8 or more)

Here are 5 compounds together with their reported answers.
COMPOUND: CCOc1ccccc1OCC1CN(Cc2ccc(Cl)cc2Cl)CCO1 (stereo not drawn)
SUBJECT OF TEST: D(4) dopamine receptor (Homo sapiens)
ANSWER LABEL: interval 1
--
COMPOUND: CCOc1cc(C#N)ccc1OCC1CN(Cc2ccc(Cl)cc2)CCO1 (stereo not drawn)
SUBJECT OF TEST: D(4) dopamine receptor (Homo sapiens)
ANSWER LABEL: interval 2
--
COMPOUND: CCCc1ccccc1OCC1CN(Cc2ccc(Cl)cc2)CCO1 (stereo not drawn)
SUBJECT OF TEST: D(4) dopamine receptor (Homo sapiens)
ANSWER LABEL: interval 2
--
COMPOUND: COc1ccccc1/C=C/C1CN(Cc2ccc(Cl)cc2)CCO1 (stereo not drawn)
SUBJECT OF TEST: D(4) dopamine receptor (Homo sapiens)
ANSWER LABEL: interval 1
--
COMPOUND: CCOc1ccc(Cl)cc1OCC1CN(Cc2ccc(Cl)cc2)CCO1 (stereo not drawn)
SUBJECT OF TEST: D(4) dopamine receptor (Homo sapiens)
ANSWER LABEL: interval 3

In the following, a different compound is considered.
Hi, small favor: classify COc1cccc(OCC2CN(Cc3ccc(Cl)cc3)CCO2)c1OC (stereo not drawn) by its pKi when you get a moment.
interval 1

====

# SUBJECT OF TEST: D(4) dopamine receptor (Homo sapiens, UniProt P21917)
# Sequence (P21917 whole entry): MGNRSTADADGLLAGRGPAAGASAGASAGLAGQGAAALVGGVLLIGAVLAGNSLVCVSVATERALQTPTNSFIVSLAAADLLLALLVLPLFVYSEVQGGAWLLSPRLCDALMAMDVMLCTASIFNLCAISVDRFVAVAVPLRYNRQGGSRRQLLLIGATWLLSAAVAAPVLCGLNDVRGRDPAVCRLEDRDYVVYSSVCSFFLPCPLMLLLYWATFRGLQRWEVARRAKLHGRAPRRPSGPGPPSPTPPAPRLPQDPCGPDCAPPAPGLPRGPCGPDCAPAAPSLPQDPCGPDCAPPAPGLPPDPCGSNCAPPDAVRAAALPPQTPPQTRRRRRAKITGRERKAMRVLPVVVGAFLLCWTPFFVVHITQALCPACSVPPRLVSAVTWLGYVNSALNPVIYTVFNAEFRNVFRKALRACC
# TEST DETAILS: In vitro ability of compound to inhibit binding of [3H]spiperone to human Dopamine receptor D4
pKi values for the molecules below.
Expect pKi as a plain number equal to -log10 of the molar concentration.

Example cases with answers are listed next.
MOLECULE: Oc1cc(Cl)ccc1NCC1CN(Cc2ccc(Cl)cc2)CCO1 (stereo unspecified)
pKi: 8.27
//
MOLECULE: CC(C)Oc1ccccc1OCC1CN(Cc2ccc(Cl)cc2)CCO1 (stereo unspecified)
pKi: 7.34
//
MOLECULE: COc1ccccc1OCC1CN(Cc2ccc(C(F)(F)F)cc2)CCO1 (stereo unspecified)
pKi: 7.21
//
MOLECULE: COc1ccc(F)cc1OCC1CN(Cc2ccc(Cl)cc2)CCO1 (stereo unspecified)
pKi: 7.52
//
MOLECULE: COc1ccc(Cl)cc1NCC1CN(Cc2ccc(Cl)cc2)CCO1 (stereo unspecified)
pKi: 8.35

Any idea what pKi was measured for Cc1ncccc1OCC1CN(Cc2ccc(Cl)cc2)CCCO1 (stereo unspecified) ?
7.08

====

# SUBJECT OF TEST: D(4) dopamine receptor (Homo sapiens, UniProt P21917)
# TEST DETAILS: In vitro ability of compound to inhibit binding of [3H]spiperone to human Dopamine receptor D4
pKi: −log10 of the molar value.
Assign class by pKi: not lower than 7 means 1; lower than 7 means 0.

Below, 5 compounds whose answers are already recorded.
COMPOUND: CCOc1ccc(Cl)cc1OCC1CN(Cc2ccc(Cl)cc2)CCCO1 (configuration not stated)
ANSWER LABEL: 1

COMPOUND: COc1ccccc1OCC1CN(Cc2ccc(Cl)c(Cl)c2)CCO1 (configuration not stated)
ANSWER LABEL: 1

COMPOUND: COc1ccccc1OCC1CN(Cc2ccc(Cl)cc2)CCO1 (configuration not stated)
ANSWER LABEL: 1

COMPOUND: CCOc1ccccc1OCC1CN(Cc2ccc(Cl)cc2)CCO1 (configuration not stated)
ANSWER LABEL: 1

COMPOUND: COc1cc(Cl)ccc1OC[C@@H]1CN(Cc2ccc(Cl)cc2)CCO1
ANSWER LABEL: 1

Reported pKi reaches at least 7 for COc1ccccc1CCC1CN(Cc2ccc(Cl)cc2)CCO1 (configuration not stated) ?
1

Quick check: does COc1ccccc1OCC1CN(Cc2cccc(Cl)c2)CCO1 (configuration not stated) have pKi greater than or equal to 7?
0

API: above_or_equal(metric=pKi, cutoff=7) for item COc1ccc(C(F)(F)F)cc1OCC1CN(Cc2ccc(Cl)cc2)CCO1 (configuration not stated)
0

I'd appreciate it if you could say whether CCOc1cc(Cl)ccc1OCC1CN(Cc2ccc(Cl)cc2)CCCO1 (configuration not stated) has pKi at least equal to 7.
1

Item CC(=O)c1ccc(Cl)cc1OCC1CN(Cc2ccc(Cl)cc2)CCCO1 (configuration not stated) with pKi of 7 or above?
1

# check: pKi of COc1ccc([N+](=O)[O-])cc1OCC1CN(Cc2ccc(Cl)cc2)CCO1 (configuration not stated) is greater than or equal to 7
1

In plain terms: is recorded pKi at least 7 for COc1cc(Cl)ccc1OCC1CN(Cc2ccc(Cl)cc2)CCO1 (racemic) ?
1

I'd appreciate it if you could say whether CCOc1ccccc1OCC1CN(Cc2ccc(F)cc2)CCO1 (configuration not stated) has pKi at least equal to 7.
0

Record COc1cc(I)ccc1OCC1CN(Cc2ccccc2)CCO1 (configuration not stated) ; criterion: pKi no lower than 7. Met?
0

API: above_or_equal(metric=pKi, cutoff=7) for item CCOc1cc(Cl)ccc1OCC1CN(Cc2ccc(Cl)cc2)CCO1 (configuration not stated)
1

// inclusive: pKi at least 7? input: CCOc1ccccc1OCC1CN(Cc2ccc([N+](=O)[O-])cc2)CCO1 (configuration not stated)
1

Kindly determine if pKi recorded for COc1cc(Cl)ccc1OC[C@H]1CN(Cc2ccc(Cl)cc2)CCO1 is above or exactly 7.
0

pKi >= 7 for COc1cc(Cl)ccc1OCC1CN(Cc2ccc(Br)cc2)CCCO1 (configuration not stated) ?
1

Could you verify whether the entry Clc1ccc(CN2CCOC(COc3ccc(Cl)c4cccnc34)C2)cc1 (configuration not stated) shows pKi of no less than 7?
1

Hello, I need to know if CCOc1cc(I)ccc1OCC1CN(Cc2ccc(Cl)cc2)CCO1 (configuration not stated) has measured pKi not below 7. Thanks!
1

Quick check, pKi >= 7? COc1ccc([N+](=O)[O-])cc1OCC1CN(Cc2ccc(Cl)cc2)CCCO1 (configuration not stated)
0

Form field: pKi at least 7? Entry: CCOc1ccccc1OCC1CN(Cc2ccc(Cl)cc2)CCCO1 (configuration not stated)
1

Identify whether the reported pKi of the following compound is 7 or greater: COCCOc1ccccc1OCC1CN(Cc2ccc(Cl)cc2)CCO1 (configuration not stated)
1
